What concentration detected intact in urine was measured for each of the following?
assay: Chimp pharmacokinetics Run A, IV or PO co-dosing of atazanavir and Compounds 114, 120, 122; format: in vivo, chimpanzee; conditions: chimpanzee, in vivo, po, 24 h
Entry rule: numbers only, all in ng/mL.

Problem: // returns reported concentration detected intact in urine for input COC(=O)N[C@H](C(=O)N[C@@H](Cc1ccccc1)[C@@H](O)CN(Cc1ccc(-c2ccccn2)cc1)NC(=O)[C@@H](NC(=O)OC)C(C)(C)C)C(C)(C)C [Atazanavir, atazanavir, reference compound]
Solution: 516

Problem: Would you kindly share the measured concentration detected intact in urine for [2H]C([2H])([2H])OC(=O)N[C@H](C(=O)N[C@@H](Cc1ccccc1)[C@@H](O)CN(Cc1ccc(-c2ccccn2)cc1)NC(=O)[C@@H](NC(=O)OC)C(C)(C)C)C(C([2H])([2H])[2H])(C([2H])([2H])[2H])C([2H])([2H])[2H] [Compound 114] ?
Solution: 963

Problem: May I ask what concentration detected intact in urine has been recorded for [2H]C([2H])([2H])OC(=O)N[C@H](C(=O)NN(Cc1ccc(-c2ccccn2)cc1)C[C@H](O)[C@H](Cc1ccccc1)NC(=O)[C@@H](NC(=O)OC([2H])([2H])[2H])C(C([2H])([2H])[2H])(C([2H])([2H])[2H])C([2H])([2H])[2H])C(C)(C)C [Compound 120] ?
Solution: 1110

Problem: Can you share its concentration detected intact in urine? I mean this molecule: [2H]C([2H])([2H])OC(=O)N[C@H](C(=O)N[C@@H](Cc1ccccc1)[C@@H](O)CN(Cc1ccc(-c2ccccn2)cc1)NC(=O)[C@@H](NC(=O)OC([2H])([2H])[2H])C(C([2H])([2H])[2H])(C([2H])([2H])[2H])C([2H])([2H])[2H])C(C([2H])([2H])[2H])(C([2H])([2H])[2H])C([2H])([2H])[2H] [Compound 122]
Solution: 1180

---

Exercise: state measured AUC for each of the compounds provided.
Assay: Rat pharmacokinetics, intravenous and oral co-dosing of Compound 122 and atazanavir
Type: in vivo
Conditions: male, Sprague-Dawley, plasma, rats, intravenous co-dosing, 1 mg/kg of each
Procedure: Rat Pharmacokinetics. […] Then the combo dose was prepared by mixing both by 1:1 to yield a final concentrations at 1 mg/mL for each compound (pH=5-6) for intravenous and oral administration. Male Sprague-Dawley rats (body weight: 170 g to 235 g) were used in this study. […] Blood samples (300 μL) were collected via the retro-orbital vein at pre-dose and 0.083, 0.25, 0.5, 1, 2, 4, 6, 8, 10, 12 and 24 hours post-dose. […]
Dear colleague, please return just the value in ng·h/mL, with no unit written.

Problem: Entry under review: "[2H]C([2H])([2H])OC(=O)N[C@H](C(=O)N[C@@H](Cc1ccccc1)[C@@H](O)CN(Cc1ccc(-c2ccccn2)cc1)NC(=O)[C@@H](NC(=O)OC([2H])([2H])[2H])C(C([2H])([2H])[2H])(C([2H])([2H])[2H])C([2H])([2H])[2H])C(C([2H])([2H])[2H])(C([2H])([2H])[2H])C([2H])([2H])[2H]" . Reported AUC?
Solution: 503

Problem: // AUC lookup, key: COC(=O)N[C@H](C(=O)N[C@@H](Cc1ccccc1)[C@@H](O)CN(Cc1ccc(-c2ccccn2)cc1)NC(=O)[C@@H](NC(=O)OC)C(C)(C)C)C(C)(C)C [Atazanavir, atazanavir, reference compound]
Solution: 475
